Tested on: caspase-3 in A549 cells
method notes: Caspase-3 activation
Assay type: cell-based, human
assay context: 24 h
endpoint name: % Caspase-3 negative cells (%)

- compound: "Clc1ccc(-c2csc(NN=Cc3ccncc3)n2)cc1Cl"
  unit: "%"
  value: 25.00
- compound: "N.N.[Cl][Pt][Cl] [Cisplatin, reference compound]"
  unit: "%"
  value: 75.56
- compound: "C(=NNc1nc(-c2ccc(-c3ccccc3)cc2)cs1)c1ccccn1"
  unit: "%"
  value: 91.76
- compound: "Clc1ccc(-c2csc(NN=Cc3cccnc3)n2)cc1Cl"
  unit: "%"
  value: 97.47
- compound: "C(=NNc1nc(-c2ccc(-c3ccccc3)cc2)cs1)c1ccncc1"
  unit: "%"
  value: 69.82
- compound: "CS(=O)(=O)c1ccc(-c2csc(NN=Cc3cccnc3)n2)cc1"
  unit: "%"
  value: 73.16
- compound: "CS(=O)(=O)c1ccc(-c2csc(NN=Cc3ccccn3)n2)cc1"
  unit: "%"
  value: 84.70

Attribution: paper PMC12059926
